System: SJSA-1 cells
testSummary: Cell lysis by peptidomimetic macrocycles (LDH release)
Assay type: cell-based
experimentalParameters: 25 μM, SJSA-1, 1 h
Bridge positions count the residues as written; N and C are the ends. Square brackets hold non-standard residues; d marks the D form. Peptide text beside a SMILES is read from it. R8 = C=CCCCCCC[C@@](C)(N)C(=O)O; S5 = C=CCCC[C@](C)(N)C(=O)O
propertyLabel: 25 μM % Lysed cells (1 h LDH) (%)
Reply numerically in %, unit not repeated.

# compound, propertyLabel, number
measured = [
    ("CC(=O)N[C@@H](CC(C)C)C(=O)N[C@H](C(=O)N[C@@H](Cc1ccccc1)C(=O)N[C@]1(C)CCCCCCC=CCCC[C@@](C)(C(=O)N[C@@H](C)C(=O)N[C@@H](C)C(=O)N[C@@H](C)C(=O)N[C@@H](C)C(=O)N[C@@H](C)C(=O)N[C@@H](C)C(=O)N[C@H](C)C(N)=O)NC(=O)[C@H](CC(C)C)NC(=O)[C@H](CCC(N)=O)NC(=O)[C@H](C)NC(=O)[C@H](Cc2c[nH]c3ccccc23)NC(=O)[C@H](Cc2ccc(O)cc2)NC(=O)[C@H](C)NC1=O)[C@@H](C)O (single isomer, unassigned) [compound 316]", "25 μM % Lysed cells (1 h LDH)", 0),
]

Query compound follows.
### Prompt Answer with the recorded 25 μM % Lysed cells (1 h LDH) for the compound listed here: CC(=O)N[C@@H](CC(C)C)C(=O)N[C@H](C(=O)N[C@@H](Cc1ccccc1)C(=O)N[C@]1(C)CCCCCCC=CCCC[C@@](C)(C(=O)N[C@@H](CO)C(=O)N[C@H](C(=O)NCC(N)=O)C(C)C)NC(=O)[C@H](CC(C)C)NC(=O)[C@H](CCC(N)=O)NC(=O)[C@H](C)NC(=O)[C@H](Cc2c[nH]c3ccccc23)NC(=O)[C@H](Cc2ccc(O)cc2)NC(=O)[C@H](C)NC1=O)[C@@H](C)O [compound 123] (Ac-LTF[R8]AYWAQL[S5]SVG-NH2; staple 4-11)
### Response 5
